Test system: Human RSV-A (“Long” strain)
test description: RSV in vitro cytoprotection assay in HEp-2 cells (ATPlite readout)
Format: cell-based
test settings: human respiratory syncytial virus, HEp-2

| compound | EC50 |
| --- | --- |
| O=C(Nc1ccccc1F)N[C@H]1N=C(c2ccccc2)c2ccccc2NC1=O [RSV-604, reference compound] | ~2400 nM |

FYI, the data here is from patent US10851115B2.
